System: 171881-019-R-J1-PDC tumor spheroids, viability;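 note: spheroids exposed to compounds for 7 days; 100% = DMSO vehicle control viability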
test_details: Anticancer human tumor 171881-019-R-J1-PDC patient-derived invasive breast carcinoma cell line growth inhibition [GQUAD]
condition_summary: second compound 0.316 µM; first compound 0.000999 µM; stronger effect = lower value; spheroids with HUVEC and MSC
measured_metric: viability, T/C (%)

{"columns": ["molecule", "measured_metric", "experimental_value"],
 "data": [
  ["CC[C@@]1(O)C(=O)OCc2c1cc1n(c2=O)Cc2cc3c(CN(C)C)c(O)ccc3nc2-1 + CN(C)c1ccc(Nc2c3ccc(NC(=O)CCN4CCCC4)cc3nc3cc(NC(=O)CCN4CCCC4)ccc23)cc1", "viability, T/C", 85],
  ["CC[C@@]1(O)C(=O)OCc2c1cc1n(c2=O)Cc2cc3c(CN(C)C)c(O)ccc3nc2-1 + Cc1[nH]c2ccc(F)cc2c1-c1nc2c3cccnc3c3ncccc3c2[nH]1", "viability, T/C", 101],
  ["Cn1ncnc1[C@H]1c2n[nH]c(=O)c3cc(F)cc(c23)N[C@@H]1c1ccc(F)cc1 + CN(C)c1ccc(Nc2c3ccc(NC(=O)CCN4CCCC4)cc3nc3cc(NC(=O)CCN4CCCC4)ccc23)cc1", "viability, T/C", 87.7],
  ["CCc1c2c(nc3ccc(O)cc13)-c1cc3c(c(=O)n1C2)COC(=O)[C@]3(O)CC + CN(C)c1ccc(Nc2c3ccc(NC(=O)CCN4CCCC4)cc3nc3cc(NC(=O)CCN4CCCC4)ccc23)cc1", "viability, T/C", 77.1],
  ["CCc1c2c(nc3ccc(O)cc13)-c1cc3c(c(=O)n1C2)COC(=O)[C@]3(O)CC + Cc1cnc(CNC(=O)c2c(=O)c3ccc(N4CCCN(C)CC4)nc3n3c2sc2ccccc23)cn1", "viability, T/C", 61.6],
  ["Cc1[nH]c2ccccc2c1CCNCc1ccc(/C=C/C(=O)NO)cc1 + Cc1cnc(CNC(=O)c2c(=O)c3ccc(N4CCCN(C)CC4)nc3n3c2sc2ccccc23)cn1", "viability, T/C", 75.3]
]}
